- Test system: myeloid leukemia patient primary cells Pat.13
- TEST METHOD NOTES: cell viability (% survival relative to DMSO control); higher = less cytotoxic
- DETAILS: 10000 nM; 72 h
The entries below are paired with their reported cell viability.
MEASUREMENT KIND: cell viability (%)

>  <MOLECULE>
Clc1ccc(COC(Cn2ccnc2)c2ccc(Cl)cc2Cl)cc1 (centres undefined)

>  <TARGET OF ASSAY>
myeloid leukemia patient primary cells Pat.13

>  <MEASUREMENT KIND>
cell viability

>  <INEQUALITY SYMBOL>
=

>  <OBSERVED MEASUREMENT>
60.6

$$$$
>  <MOLECULE>
CCN(CC)CCN(Cc1ccc(-c2ccc(C(F)(F)F)cc2)cc1)C(=O)Cn1c(SCc2ccc(F)cc2)nc(=O)c2c1CCC2

>  <TARGET OF ASSAY>
myeloid leukemia patient primary cells Pat.13

>  <MEASUREMENT KIND>
cell viability

>  <INEQUALITY SYMBOL>
<

>  <OBSERVED MEASUREMENT>
0

$$$$
>  <MOLECULE>
CC12CCC(O)CC1CCC1C2CCC2(C)C(C3=CC(=O)OC3)CCC12O (centres undefined)

>  <TARGET OF ASSAY>
myeloid leukemia patient primary cells Pat.13

>  <MEASUREMENT KIND>
cell viability

>  <INEQUALITY SYMBOL>
=

>  <OBSERVED MEASUREMENT>
4.96

$$$$
>  <MOLECULE>
Sc1ncnc2nc[nH]c12

>  <TARGET OF ASSAY>
myeloid leukemia patient primary cells Pat.13

>  <MEASUREMENT KIND>
cell viability

>  <INEQUALITY SYMBOL>
=

>  <OBSERVED MEASUREMENT>
93.2

$$$$

###

- Tested on: KCL-22
- DETAILS: 72 h
The entries below are paired with their reported IC50 (cell viability).

>  <MOLECULE>
Cc1c(-c2ccccc2)oc2c(C(=O)OCCN3CCCCC3)cccc2c1=O.Cl [Flavoxate]

>  <IC50 (cell viability)>
> 10 µM

$$$$
>  <MOLECULE>
COc1c(C)c2c(c(O)c1C/C=C(\C)CCC(=O)O)C(=O)OC2

>  <IC50 (cell viability)>
0.289 µM

$$$$
>  <MOLECULE>
CN(C/C=C/C#CC(C)(C)C)Cc1cccc2ccccc12

>  <IC50 (cell viability)>
> 10 µM

$$$$
>  <MOLECULE>
CC12CCC(O)CC1CCC1C2CCC2(C)C(C3=CC(=O)OC3)CCC12O (configuration not stated)

>  <IC50 (cell viability)>
0.331 µM

$$$$
>  <MOLECULE>
Cc1coc2c1C(=O)C(=O)c1c-2ccc2c(C)cccc12

>  <IC50 (cell viability)>
> 10 µM

$$$$
>  <MOLECULE>
Sc1ncnc2nc[nH]c12

>  <IC50 (cell viability)>
1.01 µM

$$$$
>  <MOLECULE>
O=C(O)C(Cl)Cl [Dichloroacetate]

>  <IC50 (cell viability)>
> 10 µM

$$$$

###

- System: HEL
- TEST METHOD NOTES: cell viability (% survival relative to DMSO control, bortezomib = 0%); higher = less cytotoxic
- DETAILS: 1000 nM; 72 h
MEASUREMENT KIND: cell viability (%)

>  <MOLECULE>
C[C@]12CC[C@H](O)CC1=CC[C@@H]1[C@@H]2CC[C@]2(C)C(c3cccnc3)=CC[C@@H]12 [Abiraterone]

>  <UNITS>
%

>  <OBSERVED MEASUREMENT>
112

$$$$
>  <MOLECULE>
CCN(CC)CCN(Cc1ccc(-c2ccc(C(F)(F)F)cc2)cc1)C(=O)Cn1c(SCc2ccc(F)cc2)nc(=O)c2c1CCC2 [Darapladib]

>  <UNITS>
%

>  <OBSERVED MEASUREMENT>
91.1

$$$$
>  <MOLECULE>
CCOc1ccc(Cc2cc([C@@H]3O[C@H](CO)[C@@H](O)[C@H](O)[C@H]3O)ccc2Cl)cc1 [Dapagliflozin]

>  <UNITS>
%

>  <OBSERVED MEASUREMENT>
97.7

$$$$
>  <MOLECULE>
C[C@]12O[C@H](C[C@]1(O)CO)n1c3ccccc3c3c4c(c5c6ccccc6n2c5c31)CNC4=O [Lestaurtinib]

>  <UNITS>
%

>  <OBSERVED MEASUREMENT>
19.1

$$$$
>  <MOLECULE>
CC(C)C[C@H](NC(=O)[C@@H](O)[C@H](N)Cc1ccccc1)C(=O)O [Ubenimex]

>  <UNITS>
%

>  <OBSERVED MEASUREMENT>
95.4

$$$$
>  <MOLECULE>
Nc1ccn([C@@H]2O[C@H](CO)[C@@H](O)[C@@H]2O)c(=O)n1 [Cytarabine]

>  <UNITS>
%

>  <OBSERVED MEASUREMENT>
-0.409

$$$$
>  <MOLECULE>
O=c1c2ccccc2[se]n1-c1ccccc1 [Ebselen]

>  <UNITS>
%

>  <OBSERVED MEASUREMENT>
96.5

$$$$

###

- System: HL-60
- TEST METHOD NOTES: cell viability (% survival relative to DMSO control); higher = less cytotoxic
- DETAILS: 0.001 µM; 72 h; co-treatment: DMSO vehicle
MEASUREMENT KIND: cell viability (%)

>  <COMPOUND>
O=C(Nc1ccccc1)c1cc([N+](=O)[O-])ccc1Cl

>  <TARGET OF ASSAY>
HL-60

>  <MEASUREMENT KIND>
cell viability

>  <OBSERVED MEASUREMENT>
101

$$$$
>  <COMPOUND>
O=C(O)CC[C@H](NC(=O)c1ccc([N+](=O)[O-])cc1)C(=O)O [(S)-2-(4-Nitrobenzamido)pentanedioic acid]

>  <TARGET OF ASSAY>
HL-60

>  <MEASUREMENT KIND>
cell viability

>  <OBSERVED MEASUREMENT>
101

$$$$
>  <COMPOUND>
CC12CCC(O)CC1CCC1C2CCC2(C)C(C3=CC(=O)OC3)CCC12O (centres undefined)

>  <TARGET OF ASSAY>
HL-60

>  <MEASUREMENT KIND>
cell viability

>  <OBSERVED MEASUREMENT>
99.5

$$$$
>  <COMPOUND>
CCOC(=O)[C@H]1O[C@@H]1C(=O)N[C@@H](CC(C)C)C(=O)NCCC(C)C

>  <TARGET OF ASSAY>
HL-60

>  <MEASUREMENT KIND>
cell viability

>  <OBSERVED MEASUREMENT>
102

$$$$

###

- System: SHI-1
- TEST METHOD NOTES: cell viability (% survival relative to DMSO control, bortezomib = 0%); higher = less cytotoxic
- DETAILS: 100 nM; 72 h
Strictly below 90% in cell viability: yes (1). Otherwise: no (0).

>  <COMPOUND>
Cc1ccc(S(=O)(=O)NC2c3ccccc3Oc3ccccc32)cc1

>  <CLASS LABEL>
no (0)

$$$$
>  <COMPOUND>
O=C(O)c1nn(Cc2ccc(Cl)cc2Cl)c2ccccc12

>  <CLASS LABEL>
no (0)

$$$$
>  <COMPOUND>
Nc1ccn([C@@H]2O[C@H](CO)[C@@H](O)[C@@H]2O)c(=O)n1

>  <CLASS LABEL>
yes (1)

$$$$
>  <COMPOUND>
CCN(CC)CCN(Cc1ccc(-c2ccc(C(F)(F)F)cc2)cc1)C(=O)Cn1c(SCc2ccc(F)cc2)nc(=O)c2c1CCC2

>  <CLASS LABEL>
no (0)

$$$$
>  <COMPOUND>
O=C(O)C(Cl)Cl [Dichloroacetate]

>  <CLASS LABEL>
no (0)

$$$$
>  <COMPOUND>
C[C@H]1O[C@@H](O[C@H]2[C@@H](O)C[C@H](O[C@H]3[C@@H](O)C[C@H](O[C@H]4CC[C@@]5(C)[C@H](CC[C@@H]6[C@@H]5C[C@@H](O)[C@]5(C)[C@@H](C7=CC(=O)OC7)CC[C@]65O)C4)O[C@@H]3C)O[C@@H]2C)C[C@H](O)[C@@H]1O

>  <CLASS LABEL>
yes (1)

$$$$

###

- Test system: HEL
- TEST METHOD NOTES: cell viability (% survival relative to DMSO control, bortezomib = 0%); higher = less cytotoxic
- DETAILS: 1000 nM; 72 h
MEASUREMENT KIND: cell viability (%)

>  <COMPOUND>
OCCN1CCN(CCCN2c3ccccc3Sc3ccc(Cl)cc32)CC1 [Perphenazine]

>  <MEASUREMENT KIND>
cell viability

>  <OBSERVED MEASUREMENT>
108

$$$$
>  <COMPOUND>
CCCc1nn(C)c2c(O)nc(-c3cc(S(=O)(=O)N4CCN(C)CC4)ccc3OCC)nc12 [Sildenafil]

>  <MEASUREMENT KIND>
cell viability

>  <OBSERVED MEASUREMENT>
108

$$$$
>  <COMPOUND>
CCOC(=O)N1c2ccc(C(F)(F)F)cc2[C@@H](N(Cc2cc(C(F)(F)F)cc(C(F)(F)F)c2)C(=O)OC)C[C@H]1CC [Torcetrapib]

>  <MEASUREMENT KIND>
cell viability

>  <OBSERVED MEASUREMENT>
103

$$$$
>  <COMPOUND>
O=C(O)C(Cl)Cl [Dichloroacetate]

>  <MEASUREMENT KIND>
cell viability

>  <OBSERVED MEASUREMENT>
97

$$$$
>  <COMPOUND>
Clc1ccc(COC(Cn2ccnc2)c2ccc(Cl)cc2Cl)cc1 (stereo not drawn) [Econazole]

>  <MEASUREMENT KIND>
cell viability

>  <OBSERVED MEASUREMENT>
99

$$$$
>  <COMPOUND>
O=C(c1ccc(OCCN2CCCCC2)cc1)c1c(-c2ccc(O)cc2)sc2cc(O)ccc12 [Raloxifene]

>  <MEASUREMENT KIND>
cell viability

>  <OBSERVED MEASUREMENT>
98.4

$$$$
>  <COMPOUND>
Nc1ncnc2c1ncn2[C@@H]1O[C@H](CSCC[C@H](N)C(=O)O)[C@@H](O)[C@H]1O [S-Adenosyl Homocysteine]

>  <MEASUREMENT KIND>
cell viability

>  <OBSERVED MEASUREMENT>
101

$$$$
>  <COMPOUND>
Cl.OC[C@H]1NC[C@@H](O)[C@@H](O)[C@@H]1O [1-Deoxymannojirimycin hydrochloride]

>  <MEASUREMENT KIND>
cell viability

>  <OBSERVED MEASUREMENT>
119

$$$$
>  <COMPOUND>
CC(/C=C1\SC(=S)N(CC(=O)O)C1=O)=C\c1ccccc1 [Epalrestat]

>  <MEASUREMENT KIND>
cell viability

>  <OBSERVED MEASUREMENT>
95.5

$$$$
>  <COMPOUND>
C=CCc1ccc2c(c1O)C(=O)c1ccccc1C2=O [R162]

>  <MEASUREMENT KIND>
cell viability

>  <OBSERVED MEASUREMENT>
106

$$$$
>  <COMPOUND>
O=P(O)(O)C(O)(Cn1ccnc1)P(=O)(O)O [Zoledronic acid]

>  <MEASUREMENT KIND>
cell viability

>  <OBSERVED MEASUREMENT>
94.9

$$$$
>  <COMPOUND>
CC(C(=O)O)C(=O)O [Methylmalonate]

>  <MEASUREMENT KIND>
cell viability

>  <OBSERVED MEASUREMENT>
81.5

$$$$
>  <COMPOUND>
C#Cc1cnc(O)nc1O [Eniluracil]

>  <MEASUREMENT KIND>
cell viability

>  <OBSERVED MEASUREMENT>
90.1

$$$$
